Attribution: ChEMBL document CHEMBL1961873

# TARGET_UNDER_TEST: Cyclin-dependent kinase 2 (Homo sapiens);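 further: mean inhibition of the CDK2–cyclin A kinase complex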
# RUN_PARAMETERS: at 1 µM
ASSAY_ENDPOINT: inhibition (%)
# value in %; strip the unit string

• Cc1ccc(NC(=O)c2ccnc(N3CCCC3)c2)cc1-c1ccc(C(=O)NCC2CC2)cc1 = 2.88

Next molecule, please.
**Q:** # input molecule: [O-][S+]1CCN(Cc2ccc(-c3ccc4ncnc(Nc5ccc(OCc6ccccc6)c(F)c5)c4c3)o2)CC1 ; wanted: its inhibition
**A:** -1.12

* * *

# TARGET_UNDER_TEST: Fibroblast growth factor receptor 1 (Homo sapiens) (UniProt P11362);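 further: values are reported as mean percent inhibition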
# Sequence (P11362 22-822 limits assumed): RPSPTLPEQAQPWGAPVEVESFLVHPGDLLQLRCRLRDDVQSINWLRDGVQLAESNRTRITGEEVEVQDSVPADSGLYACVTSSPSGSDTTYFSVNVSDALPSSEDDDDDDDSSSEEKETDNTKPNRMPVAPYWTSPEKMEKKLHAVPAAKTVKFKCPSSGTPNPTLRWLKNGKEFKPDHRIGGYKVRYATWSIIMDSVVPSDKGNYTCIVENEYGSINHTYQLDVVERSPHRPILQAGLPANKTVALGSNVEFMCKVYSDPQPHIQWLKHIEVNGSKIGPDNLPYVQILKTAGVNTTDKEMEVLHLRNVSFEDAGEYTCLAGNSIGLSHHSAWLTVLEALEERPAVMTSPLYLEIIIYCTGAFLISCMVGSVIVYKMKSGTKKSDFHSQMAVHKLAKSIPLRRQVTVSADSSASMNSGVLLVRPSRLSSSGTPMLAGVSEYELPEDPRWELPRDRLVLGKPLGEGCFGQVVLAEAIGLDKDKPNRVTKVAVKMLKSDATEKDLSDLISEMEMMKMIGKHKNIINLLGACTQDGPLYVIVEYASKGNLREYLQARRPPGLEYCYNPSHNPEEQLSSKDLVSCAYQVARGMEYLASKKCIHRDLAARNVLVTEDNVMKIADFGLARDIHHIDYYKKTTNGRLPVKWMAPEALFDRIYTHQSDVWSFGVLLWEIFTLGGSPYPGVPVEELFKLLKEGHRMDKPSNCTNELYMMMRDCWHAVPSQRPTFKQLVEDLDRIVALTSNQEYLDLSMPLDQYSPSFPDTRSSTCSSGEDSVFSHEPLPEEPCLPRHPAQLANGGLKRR
# RUN_PARAMETERS: at 0.1 µM
Below, each entry is listed with its recorded inhibition.
# value in %; strip the unit string

* Cc1ccc(C(=O)NC2CCCCC2)cc1-c1ccc(C(=O)NCC2CC2)cc1 | 3.66
* Cc1nn(C)c2cc(N(C)c3ccnc(Nc4cccc(S(N)(=O)=O)c4)n3)ccc12 | -0.21
* COc1ccc(COc2ccc(Cc3cnc(N)nc3N)cc2OC)cc1 | 1.78

**Q:** # input compound: CCn1c(-c2nonc2N)nc2cnc(Oc3cccc(NC(=O)c4ccc(OCCN5CCOCC5)cc4)c3)cc21 ; wanted: its inhibition
**A:** 1.76

**Q:** # input compound: COc1cc2ncn(-c3cc(O[C@@H](C)c4ccccc4Cl)c(C(N)=O)s3)c2cc1OC ; wanted: its inhibition
**A:** 2.01

**Q:** # input compound: [O-][S+]1CCN(Cc2ccc(-c3ccc4ncnc(Nc5ccc(OCc6ccccc6)c(F)c5)c4c3)o2)CC1 ; wanted: its inhibition
**A:** 2.71

**Q:** # input compound: CCn1c(-c2nonc2N)nc2ccncc21 ; wanted: its inhibition
**A:** 0.47

**Q:** # input compound: Nc1ncnc2occ(-c3ccc(NC(=O)Nc4cccc(C(F)(F)F)c4)cc3)c12 ; wanted: its inhibition
**A:** 8.01

**Q:** # input compound: COc1ccccc1Nc1ncc(-c2ccccc2)o1 ; wanted: its inhibition
**A:** 8.72

**Q:** # input compound: CCn1c(-c2nonc2N)nc2c(N3CCCC3)nccc21 ; wanted: its inhibition
**A:** -3.71

* * *

Below, each entry is listed with its recorded inhibition.
# Tested on: Serine/threonine-protein kinase B-raf (Homo sapiens), P15056 [V600E];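 further: mean inhibition of the BRAF V599E mutant, from GSK PKIS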
# Sequence (P15056 whole entry V600E): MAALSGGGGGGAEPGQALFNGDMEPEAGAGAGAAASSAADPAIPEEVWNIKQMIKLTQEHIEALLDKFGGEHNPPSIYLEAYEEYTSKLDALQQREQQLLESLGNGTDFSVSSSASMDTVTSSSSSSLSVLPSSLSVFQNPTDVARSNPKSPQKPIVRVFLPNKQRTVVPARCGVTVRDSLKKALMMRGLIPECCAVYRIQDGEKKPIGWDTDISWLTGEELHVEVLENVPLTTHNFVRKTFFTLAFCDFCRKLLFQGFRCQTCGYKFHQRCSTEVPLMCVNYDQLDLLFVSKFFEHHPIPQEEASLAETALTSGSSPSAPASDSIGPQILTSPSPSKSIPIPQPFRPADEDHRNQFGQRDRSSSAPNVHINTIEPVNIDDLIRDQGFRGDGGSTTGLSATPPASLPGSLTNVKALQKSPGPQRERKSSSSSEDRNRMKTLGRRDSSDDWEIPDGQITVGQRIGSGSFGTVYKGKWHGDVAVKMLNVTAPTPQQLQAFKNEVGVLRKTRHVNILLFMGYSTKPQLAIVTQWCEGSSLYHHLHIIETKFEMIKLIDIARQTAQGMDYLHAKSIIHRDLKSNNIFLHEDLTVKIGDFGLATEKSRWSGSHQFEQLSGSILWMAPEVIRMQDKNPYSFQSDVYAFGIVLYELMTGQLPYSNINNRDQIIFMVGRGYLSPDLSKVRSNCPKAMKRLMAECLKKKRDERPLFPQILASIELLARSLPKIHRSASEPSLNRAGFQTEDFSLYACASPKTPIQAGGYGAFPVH
# RUN_PARAMETERS: at 0.1 µM
# Description: GSK_PKIS: BRAF (V599E mutant) mean inhibition at 0.1 uM [Nanosyn]
# value in %; strip the unit string

* CCn1c(-c2nonc2N)nc2ccncc21 | 1.64

**Q:** Hi! What's the reported inhibition for Cc1nn(C)c2cc(N(C)c3ccnc(Nc4cccc(S(N)(=O)=O)c4)n3)ccc12 on Serine/threonine-protein kinase B-raf (Homo sapiens), P15056 [V600E]?
**A:** 4.01

**Q:** Hi! What's the reported inhibition for COc1ccccc1Nc1ncc(-c2ccccc2)o1 on Serine/threonine-protein kinase B-raf (Homo sapiens), P15056 [V600E]?
**A:** 4.73

**Q:** Hi! What's the reported inhibition for CCn1c(-c2nonc2N)nc2c(C#CC(C)(C)O)nc(CN3CCCC3)cc21 on Serine/threonine-protein kinase B-raf (Homo sapiens), P15056 [V600E]?
**A:** -1.31

**Q:** Hi! What's the reported inhibition for CS(=O)(=O)Nc1ccc(N/C=C2\C(=O)Nc3ccccc32)cc1 on Serine/threonine-protein kinase B-raf (Homo sapiens), P15056 [V600E]?
**A:** -3.06

**Q:** Hi! What's the reported inhibition for COc1ccc(-c2nn3ncccc3c2-c2ccnc(Nc3ccc(Cl)c(C(F)(F)F)c3)n2)cc1 on Serine/threonine-protein kinase B-raf (Homo sapiens), P15056 [V600E]?
**A:** 3.98

* * *

Below, each entry is listed with its recorded inhibition.
# TARGET_UNDER_TEST: Ribosomal protein S6 kinase alpha-6 (Homo sapiens);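 further: reported value is the mean inhibition of RSK4, from the GSK PKIS kinase inhibitor screen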
# RUN_PARAMETERS: at 0.1 µM
# value in %; strip the unit string

Some solved cases for reference:
* Nc1nc(-c2ccccn2)c(-c2ccc3ncccc3n2)s1 | 0.91
* CN(C)c1cc2c(Nc3ccc4nc(Cc5ccccc5)[nH]c4c3)ncnc2cn1 | 2.02
* COc1cc2ncn(-c3cc(OCc4ccccc4C(F)(F)F)c(C(N)=O)s3)c2cc1OC | 3.37
* O=C1Nc2ccc(C(=O)c3ccco3)cc2C1=Cc1cc(Cl)c(O)c(Cl)c1 | 1.47
* COc1cccc(-n2ncc3c(N/N=C/c4cccc(F)c4)ncnc32)c1 | 1.48

**Q:** # input molecule: COC(=O)Nc1nc2cc(Oc3cccc(NC(=O)Nc4cc(C(F)(F)F)ccc4F)c3)ccc2[nH]1 ; wanted: its inhibition
**A:** -0.63

**Q:** # input molecule: Fc1cccc(COc2ccc(Nc3ncnc4sc(-c5cccs5)cc34)cc2Cl)c1 ; wanted: its inhibition
**A:** -0.01

**Q:** # input molecule: CNC(=O)c1cncc(/C=C/c2c(Cl)cccc2Cl)c1 ; wanted: its inhibition
**A:** 0.73

**Q:** # input molecule: Cc1ccc(C(=O)NC2CCCCC2)cc1-c1ccc(C(=O)NCC2CC2)cc1 ; wanted: its inhibition
**A:** -0.04

**Q:** # input molecule: CS(=O)(=O)CCNCc1ccc(-c2ccc3ncnc(Nc4ccc(OCc5cccc(F)c5)c(C(F)(F)F)c4)c3c2)o1 ; wanted: its inhibition
**A:** 1.6

**Q:** # input molecule: O=C1NC(=O)C(c2cccc(Cl)c2)=C1Nc1ccc(O)c(Cl)c1 ; wanted: its inhibition
**A:** 3.63

**Q:** # input molecule: CS(=O)(=O)CCNCc1ccc(-c2ccc3ncnc(Nc4ccc(OCc5ccccc5)c(Cl)c4)c3c2)o1 ; wanted: its inhibition
**A:** -0.67

**Q:** # input molecule: COc1cc2ncn(-c3cc(OCc4ccccc4Cl)c(C(N)=O)s3)c2cc1OC ; wanted: its inhibition
**A:** 2.26

**Q:** # input molecule: COc1ccc(-c2ccncc2)cc1C(N)=O ; wanted: its inhibition
**A:** 2.25

**Q:** # input molecule: O=C1NC(=O)C(N2CCc3ccccc32)=C1c1ccc(Cl)cc1 ; wanted: its inhibition
**A:** 2.11

* * *

# TARGET_UNDER_TEST: Insulin receptor-related protein (Homo sapiens) (UniProt P14616);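 further: mean percent inhibition of IRR, reported within the GSK PKIS screening panel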
# Sequence (P14616 27-742 limits assumed): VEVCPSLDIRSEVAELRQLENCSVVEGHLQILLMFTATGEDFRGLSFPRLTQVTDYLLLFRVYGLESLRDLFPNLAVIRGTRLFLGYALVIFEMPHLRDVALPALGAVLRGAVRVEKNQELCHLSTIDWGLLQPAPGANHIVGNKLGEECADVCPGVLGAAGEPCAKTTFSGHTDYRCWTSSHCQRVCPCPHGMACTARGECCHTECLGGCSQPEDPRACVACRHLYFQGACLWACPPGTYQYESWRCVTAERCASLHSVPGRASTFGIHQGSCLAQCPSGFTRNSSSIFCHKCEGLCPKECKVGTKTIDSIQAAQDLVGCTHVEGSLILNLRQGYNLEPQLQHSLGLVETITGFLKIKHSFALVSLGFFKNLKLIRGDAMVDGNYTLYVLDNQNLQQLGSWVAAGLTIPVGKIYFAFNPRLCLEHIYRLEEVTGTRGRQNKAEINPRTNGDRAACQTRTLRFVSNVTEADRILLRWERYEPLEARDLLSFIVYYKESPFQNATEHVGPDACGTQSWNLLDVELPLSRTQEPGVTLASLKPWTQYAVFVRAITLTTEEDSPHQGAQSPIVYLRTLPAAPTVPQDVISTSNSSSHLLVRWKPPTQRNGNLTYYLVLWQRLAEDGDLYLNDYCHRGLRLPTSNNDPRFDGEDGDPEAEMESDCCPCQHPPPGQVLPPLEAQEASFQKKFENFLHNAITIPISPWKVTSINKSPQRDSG
# Sequence (P14616 747-1297 limits assumed): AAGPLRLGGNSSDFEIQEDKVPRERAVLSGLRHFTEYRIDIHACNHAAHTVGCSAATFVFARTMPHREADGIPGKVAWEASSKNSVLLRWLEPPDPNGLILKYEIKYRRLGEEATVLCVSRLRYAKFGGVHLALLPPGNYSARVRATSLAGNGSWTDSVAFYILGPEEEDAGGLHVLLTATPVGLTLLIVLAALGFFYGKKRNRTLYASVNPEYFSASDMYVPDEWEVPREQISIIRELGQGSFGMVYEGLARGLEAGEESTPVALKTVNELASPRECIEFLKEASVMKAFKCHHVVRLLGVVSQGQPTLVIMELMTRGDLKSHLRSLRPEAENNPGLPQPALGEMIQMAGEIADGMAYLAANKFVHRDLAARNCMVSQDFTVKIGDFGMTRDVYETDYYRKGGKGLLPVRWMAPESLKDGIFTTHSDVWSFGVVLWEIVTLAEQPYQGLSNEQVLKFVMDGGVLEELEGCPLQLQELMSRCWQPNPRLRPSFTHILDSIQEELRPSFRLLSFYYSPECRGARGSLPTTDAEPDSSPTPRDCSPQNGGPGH
# RUN_PARAMETERS: at 0.1 µM
Below, each entry is listed with its recorded inhibition.
# value in %; strip the unit string

**Q:** # input molecule: N#Cc1c(NC(=O)c2cccc3ccccc23)sc2c1CCCC2 ; wanted: its inhibition
**A:** 0.81

**Q:** # input molecule: COc1ccc(COc2ccc(Cc3cnc(N)nc3N)cc2OC)cc1 ; wanted: its inhibition
**A:** 0.04

**Q:** # input molecule: CCn1c(-c2nonc2N)nc2c(N3CCCC3)nccc21 ; wanted: its inhibition
**A:** -2.24

**Q:** # input molecule: Fc1cccc(COc2ccc(Nc3ncnc4cc(-c5ccc[nH]5)sc34)cc2Cl)c1 ; wanted: its inhibition
**A:** -0.19

**Q:** # input molecule: CC1=C(C(=O)Nc2ccc3[nH]ncc3c2)C(c2ccc(F)cc2)NC(=O)N1 (stereo not given) ; wanted: its inhibition
**A:** 0.88

**Q:** # input molecule: NC(=O)c1cccc(Nc2nccc(Nc3cccc4[nH]ncc34)n2)c1 ; wanted: its inhibition
**A:** -0.86

**Q:** # input molecule: Nc1ncnc2occ(-c3ccc(NC(=O)Nc4cc(C(F)(F)F)cc(C(F)(F)F)c4)cc3)c12 ; wanted: its inhibition
**A:** 5.56

**Q:** # input molecule: CS(=O)(=O)CCNCc1ccc(-c2ccc3ncnc(Nc4ccc(OCc5ccccc5)c(Cl)c4)c3c2)o1 ; wanted: its inhibition
**A:** -1.48

**Q:** # input molecule: O=C1NC(=O)C(c2ccccc2Cl)=C1Nc1cccc(O)c1 ; wanted: its inhibition
**A:** 7.16

**Q:** # input molecule: CC1=C(C(=O)Nc2ccc3[nH]ncc3c2)C(c2ccc(Cl)c(Cl)c2)CC(=O)N1 (stereo not given) ; wanted: its inhibition
**A:** 0.58

* * *

# TARGET_UNDER_TEST: Cyclin-dependent kinase 4 (Homo sapiens) (UniProt P11802)
# Sequence (P11802 whole entry): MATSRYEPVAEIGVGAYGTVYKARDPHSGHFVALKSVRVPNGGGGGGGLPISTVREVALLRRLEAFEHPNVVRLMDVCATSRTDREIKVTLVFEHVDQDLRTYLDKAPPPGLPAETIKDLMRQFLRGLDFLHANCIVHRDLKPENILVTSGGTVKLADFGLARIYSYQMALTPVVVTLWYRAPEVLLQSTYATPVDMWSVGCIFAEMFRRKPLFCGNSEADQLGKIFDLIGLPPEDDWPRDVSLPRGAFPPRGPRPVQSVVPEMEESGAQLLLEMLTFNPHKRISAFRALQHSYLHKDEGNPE
# RUN_PARAMETERS: at 0.1 µM
# Description: GSK_PKIS: CDK4/cyclinD mean inhibition at 0.1 uM [Nanosyn]
ASSAY_ENDPOINT: inhibition

* O=C(Nc1n[nH]c2nc(-c3ccco3)c(Br)cc12)C1CC1 | 2.78%
* O=C1Nc2ccc(C(=O)c3ccco3)cc2C1=Cc1cc(Cl)c(O)c(Cl)c1 | 3.32%

**Q:** # input molecule: Nc1ncnc2occ(-c3ccc(NC(=O)Nc4cc(C(F)(F)F)cc(C(F)(F)F)c4)cc3)c12 ; wanted: its inhibition
**A:** 1.55%

**Q:** # input molecule: Cc1ccc(C(=O)NC2CCCCC2)cc1-c1ccc(C(=O)NCC2CC2)cc1 ; wanted: its inhibition
**A:** 2.37%

**Q:** # input molecule: N#Cc1c(NC(=O)c2cccc3ccccc23)sc2c1CCCC2 ; wanted: its inhibition
**A:** 3.82%

**Q:** # input molecule: NC(=O)c1ccc(-c2nc(-c3ccccn3)c(-c3ccc4c(c3)OCO4)[nH]2)cc1 ; wanted: its inhibition
**A:** 1.33%

**Q:** # input molecule: CCn1c(-c2nonc2N)nc2ccncc21 ; wanted: its inhibition
**A:** 1.15%

**Q:** # input molecule: COc1ccc(-c2nn3ncccc3c2-c2ccnc(Nc3ccc(Cl)c(C(F)(F)F)c3)n2)cc1 ; wanted: its inhibition
**A:** 1.13%

**Q:** # input molecule: NS(=O)(=O)c1ccc(N/N=C2\C(=O)Nc3ccc(C(=O)NCCc4c[nH]cn4)cc32)cc1 ; wanted: its inhibition
**A:** 14.4%

**Q:** # input molecule: CC1=C(C(=O)Nc2ccc3[nH]ncc3c2)C(c2ccc(Cl)c(Cl)c2)CC(=O)N1 (stereo not given) ; wanted: its inhibition
**A:** 0.92%
